- Tested on: Plasmodium falciparum
- experiment: GSK_TCMDC: Inhibition of Plasmodium falciparum 3D7 in whole red blood cells, using parasite LDH activity as an index of growth. Test compounds present at 2uM
- Assay type: functional
Below is a list of entries, each paired with its recorded Inhibition value.
Return type: number; implicit unit %.

Below, 3 compounds whose answers are already recorded.
Task: Which measured Inhibition belongs to Cc1ccc(C)c2sc(N(CCCn3ccnc3)C(=O)C=Cc3cccs3)nc12.Cl , tested on Plasmodium falciparum?
Result: 100

Task: Which measured Inhibition belongs to CS(=O)(=O)CCNCc1cccc(-c2ccc3c(Nc4cc(O)c(Cl)cc4F)ccnc3c2)c1 , tested on Plasmodium falciparum?
Result: 100

Task: Which measured Inhibition belongs to O=c1cc(NCCCNCc2ccc(C(F)(F)F)cc2F)[nH]c2ccccc12 , tested on Plasmodium falciparum?
Result: 93

***
Task: Which measured Inhibition belongs to CCOC(=O)c1ccc(NC(=O)NNC(=O)c2ccc(CCN3CCC(c4nc(COCC(F)(F)F)c(-c5ccc(F)cc5)o4)CC3)cc2)cc1 , tested on Plasmodium falciparum?
Result: 100

Task: Which measured Inhibition belongs to O=C(Nc1cccc(-c2ccc(-c3nc4cc(F)ccc4[nH]3)cc2)c1)c1ccoc1 , tested on Plasmodium falciparum?
Result: 85

Task: Which measured Inhibition belongs to Oc1ccc2[nH]c(-c3cccc(F)c3)nc2c1CN1CCC(N2CCCC2)CC1 , tested on Plasmodium falciparum?
Result: 100

Task: Which measured Inhibition belongs to CN1CCc2cc(NS(=O)(=O)c3ccc(-c4ccc(Cl)s4)cc3)c(N3CCCCC3)cc2CC1.Cl , tested on Plasmodium falciparum?
Result: 98

Task: Which measured Inhibition belongs to CC1(C)[C@H]2CC[C@@H](CNc3nc(NCCc4c[nH]cn4)nc(Nc4ccc(Oc5ccccc5)cc4)n3)[C@@H]1C2 , tested on Plasmodium falciparum?
Result: 99

Task: Which measured Inhibition belongs to Fc1ccc2[nH]c(-c3ccc(-c4ccc(CNCCc5ccncc5)cc4)s3)nc2c1.O=C(O)C(F)(F)F , tested on Plasmodium falciparum?
Result: 99

Task: Which measured Inhibition belongs to N#CCCn1nc(-c2ccc(Cl)cc2)c2c(c1=O)CCCC2 , tested on Plasmodium falciparum?
Result: 94

Task: Which measured Inhibition belongs to CCC(C)NC(=O)CN1CN(c2ccccc2)C2(CCN(C(=O)c3ccc(-c4ccccc4)cc3)CC2)C1=O (stereo not drawn) , tested on Plasmodium falciparum?
Result: 100

Task: Which measured Inhibition belongs to Cc1cccc2nc(-c3cccc(-c4ccc(CNCCc5ccncc5)cc4)c3)[nH]c12.O=C(O)C(F)(F)F , tested on Plasmodium falciparum?
Result: 100

Task: Which measured Inhibition belongs to O=S1(=O)C=C(c2ccccc2)CC1 , tested on Plasmodium falciparum?
Result: 97
